Overview of recorded Percent Effect for various compounds
Tested on: Trypanosoma brucei
Experiment description: Trypanosoma brucei 72 hour study
Assay type: functional, organism-based
Parameters: scale not given: in the data most compounds retested in dose-response had high values
Assay context: 30 µM; 30.03 µM
Screen size: about 66,000 compounds; about 960 (1.5%) showed an effect of 50% or more. Many of the other results were omitted from the sample, so strong results are more common in it than they were.
Measured parameter: Percent Effect (%)

[
  {
    "Compound": "CN1C(=O)CC(C(=O)O)C12CCN(c1ccc3ccccc3n1)CC2 (stereo not given)",
    "Measured parameter": "Percent Effect",
    "Val": -0.482
  },
  {
    "Compound": "CCCc1cc(NC2CCc3nc(C)nn3C2)n2ncnc2n1 (stereo not given)",
    "Measured parameter": "Percent Effect",
    "Val": -21.48
  },
  {
    "Compound": "CN(C)[C@H]1CCCCN(C(=O)c2cccc(-c3cccc(F)c3)c2)C1",
    "Measured parameter": "Percent Effect",
    "Val": 59.87
  },
  {
    "Compound": "CCN1Cc2nc(OC)c(CNC(=O)CCC3CCCC3)cc2C1=O",
    "Measured parameter": "Percent Effect",
    "Val": -13.67
  },
  {
    "Compound": "CN(C)[C@H]1CCCCN(C(=O)c2cccc(N3CCS(=O)(=O)CC3)c2)C1",
    "Measured parameter": "Percent Effect",
    "Val": 11.69
  },
  {
    "Compound": "CN(C)C1CCCN(C(=O)c2cccc(-c3ncc[nH]3)c2)CC1 (stereo not given)",
    "Measured parameter": "Percent Effect",
    "Val": -3.463
  },
  {
    "Compound": "Cn1cc(CN2CCCC3(CCCCN3S(C)(=O)=O)C2)cn1.O=C(O)C(F)(F)F (stereo not given)",
    "Measured parameter": "Percent Effect",
    "Val": -25.71
  },
  {
    "Compound": "Cc1csc2c(N3CCC(NCCCC4CCOC4)CC3)ncnc12 (stereo not given)",
    "Measured parameter": "Percent Effect",
    "Val": -28.35
  },
  {
    "Compound": "Cc1nnc([C@H]2C[C@@H]3CCN(Cc4ccc(C)o4)C[C@H]3O2)[nH]1.O=C(O)C(F)(F)F",
    "Measured parameter": "Percent Effect",
    "Val": -11.08
  },
  {
    "Compound": "CCCc1cc(NC2CCc3ncnn3C2)n2ncnc2n1 (stereo not given)",
    "Measured parameter": "Percent Effect",
    "Val": 104.4
  }
]
